Experiment: phase I study #14441, pharmacokinetics of co-administration
Assay type: in vivo, human
Settings: male, human, plasma, po
parameter: half-life

COC(=O)Nc1c(N)nc(-c2nn(Cc3ccccc3F)c3ncccc23)nc1N: 13 to 14 h

Next up:
Retrieve half-life measured for CCCc1nc(C)c2c(=O)[nH]c(-c3cc(S(=O)(=O)N4CCN(CC)CC4)ccc3OCC)nn12 [Vardenafil, reference compound] and print it. 3 to 5 h
